Consider the following variants; for each one, report its yeast fitness.
B1: tRNA (parent)
chain: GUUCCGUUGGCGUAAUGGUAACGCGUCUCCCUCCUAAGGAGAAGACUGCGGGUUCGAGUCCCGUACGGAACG

Variants of: B1
method.summary: yeast fitness relative to wild type (ratio to wild type); higher = fitter; tRNA-Arg(CCU), competitive growth, 37 C, YPD
This sample holds only a part of the variants without activity.
Numbers only.

Use the examples below as a reference point.
1) GUUCCGUUGGCGUAAUGGUAACGCGUCUACCUCCUAAGGAGAAGACUGCGGGUUCGAGUCCCGUACGGCACG [C29A A69C]	0.679
2) GUUCCGUUGGCGAAAUGGUAACGCGUCUCCCUCCUAAGGAGAAGACUCCGGGUUGGAGUCCCGUAAGGAACG [U13A G48C C55G C66A]	0.584
3) GUUCCGUUGGCGUAAUGGUAAUGCGUUUCCCUGCUAAGGAGAACACUGCGGGUUCGAGUCCCGUUCGGAACG [C22U C27U C33G G44C A65U]	0.574
4) GUUCCGUUGGCGUAAUGGCAACGCGUCUCCCUCAUAAGGAGAAGACUGCGGGUUCGAGUCCCGUACGGAACG [U19C C34A]	0.76
5) GUUCCGUUGGCGUAAUGGUAACGCGUUUCCCUCCUAAGGAGAAGACUGCGGGUUCAAGUCCCGUACGGAACG [C27U G56A]	0.998

# map each variant to its yeast fitness
1. GUUUCGUUGGCGUAAUGGUAACGCGUCUCCCUCCUAAGGAGAAGACUGCGGGUUCGAGUCCCGUACGAAACG [C4U G68A]
2. GUUCCGUUGGCGUAAUGGUAACGCGUCUCCCUCCUAAGGAGCAGACUGCGGGUUCGAGUUCCGUACGGAACG [A42C C60U]
3. GUUCCGUUGGCGUAAUGGUAACGCGUCUCCCUCCUAAGGAGAAGAGUGCGGGUUCGAGUCCCGUAGGGAACG [C46G C66G]
4. GUUCCGUUGGUGUAAUGGUAACGCGUUUCCAUCCCAAGGAGAAGACUGCGGGUUGGAGUCCCGUAUGGACCG [C11U C27U C31A U35C C55G C66U A70C]
5. GUUCCGUUGGCAUAAUGGGAACGCGUCUCCCUCCUAAGGAGAAGACUGCGGGUUCGAGUCCCGUACGGAACG [G12A U19G]

Response:
1. 0.856
2. 0.749
3. 0.986
4. 0.512
5. 0.893

# map each variant to its yeast fitness
1. GUUCCGUUGGCGUAAUGGUGACGCGUCUCCCUCCUAAGGAGAAAACUGCGGGUCCGAGUCCCGUACGGAACG [A20G G44A U54C]
2. GUUCCGUUGGCGUAAUGGUAACGCGUCUCCCUCCUAAGGAGAAGGGUGCGGGUUCGAGUCCCGUACGGAACG [A45G C46G]
3. GUUCCGUUGGCGUAAUGGUAACGCGUCUCCCUCCUAAGGAAAAGACUGCGGGUUCGAGUGUCGUGCGGAACG [G41A C60G C61U A65G]
4. GUUCCGUUGGCGUAAUGGUAACGCGUCUCCCUCUUAAGGAGAAGAUUGCGGGUUCGAGUCCCGAACGGAACG [C34U C46U U64A]
5. GUUCCGUUGGCGUUAUGGUAACGCGUCUCCCUCCUAAGGAGAAGGCUGCGGGUUCGAGUCCCGUACGGAACG [A14U A45G]
6. GUUCCGUCGGAGUAAUGGUAACGCGUCUCCCUCCUAAGGAGAAGACUGCGGGUUCGAGUCCCGUACGGAACG [U8C C11A]

Response:
1: 0.712; 2: 0.87; 3: 0.644; 4: 0.642; 5: 0.67; 6: 0.698
